Every entry's value here was drawn from patent US10030012B2.

Emax values for the molecules below.
Molecular target: UniProtKB P08173
Sequence (P08173 whole entry): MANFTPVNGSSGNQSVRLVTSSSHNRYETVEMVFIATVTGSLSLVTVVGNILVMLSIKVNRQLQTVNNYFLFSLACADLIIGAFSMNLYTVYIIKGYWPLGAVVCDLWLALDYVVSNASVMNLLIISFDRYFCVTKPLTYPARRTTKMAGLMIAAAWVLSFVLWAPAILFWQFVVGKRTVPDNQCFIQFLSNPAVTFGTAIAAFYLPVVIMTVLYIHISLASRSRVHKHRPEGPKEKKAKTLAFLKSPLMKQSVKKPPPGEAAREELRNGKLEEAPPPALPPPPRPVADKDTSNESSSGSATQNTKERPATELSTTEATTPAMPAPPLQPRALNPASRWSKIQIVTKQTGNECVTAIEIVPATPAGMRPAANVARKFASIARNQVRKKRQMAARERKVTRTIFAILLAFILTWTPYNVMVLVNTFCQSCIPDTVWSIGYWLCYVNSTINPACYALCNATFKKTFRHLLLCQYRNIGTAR
Test: In vitro M4 functional assay (intracellular calcium, FLiPR Tetra)
Type: cell-based
Details: relative efficacy to an EC100 concentration of acetylcholine; read-out: M4 % RE

molecule | uom | Emax
CCOC(=O)N1CCCC(N2CCC(c3cccnc3OCc3cscn3)CC2)CC1 (stereo not drawn) | % | 84
CCOC(=O)N1CCCC(N2CCC(c3cccnc3OCC)CC2)CC1 (stereo not drawn) | % | 80
CCOC(=O)N1CCCC(N2CCC(n3nccc3C(F)(F)F)CC2)CC1 (stereo not drawn) | % | 63
CCOC(=O)N1CCCC(N2CCC(c3cccnc3OC(F)F)CC2)CC1 (stereo not drawn) | % | 96
CCOC(=O)N1CCCC(N2CCC(n3cccc3)CC2)CC1 (stereo not drawn) | % | 59
CCOC(=O)N1CCCC(N2CCC(c3cncc(N(C)C)n3)CC2)CC1 (stereo not drawn) | % | 50
CCOC(=O)N1CCC(N2CCC(c3ccncc3)CC2)CC1 | % | 30
CCOC(=O)N1CCCC(N2CCC(c3cccn(CC#N)c3=O)CC2)CC1 (stereo not drawn) | % | 24
CCOC(=O)N1CCCC(N2CCC(n3nccc3C(=O)N(C)C)CC2)CC1 (stereo not drawn) | % | 45
